Experiment notes: binders from COS7 lysate, DM2A8 probe, primary screen, torsin A project, cell lysate, small-molecule microarray, fluorescence 635/667 (AID 1065)
Study conditions: higher = more signal, COS7 lysate expressing mutant human TOR1A
Label TRUE when composite z-score >= -0.3; otherwise FALSE.

COC(=O)C(CC#Cc1ccc2c(c1)[C@]1(C(=O)N2)[C@H](c2ccc(OCCO)cc2)N2[C@H](c3ccccc3)[C@H](c3ccccc3)OC(=O)[C@H]2[C@@H]1C(=O)Nc1nc2ccccc2s1)C(=O)OC; TRUE
CN(C)C(=O)[C@@]1(CCS(=O)(=O)c2ccccc2)COC(c2ccc(OCCCO)cc2)=N1; TRUE
COc1cc2c(cc1O)C(C1CC1)N(Cc1sc3ccccc3c1Cl)CC2 (stereo not drawn); TRUE
C=C(CCCC)/C(=C/C[C@H](OC(C)=O)c1ccccc1OCCO)c1cc(C(=O)OC)ccc1OC; TRUE

State whether the measured composite z-score reaches -0.3, counting equality as reaching it, for CCOC(=O)C[C@H]1[C@H](OC(=O)c2ccc(-c3ccccc3)cc2)[C@@H](NC(=O)Cc2ccc(OC)cc2)c2cc(OCCCO)ccc2N1C(=O)c1ccccc1
FALSE
